compounds and their reported EC50
# TARGET_ENTITY: Streptokinase A (Streptococcus pyogenes serotype M1)
# Sequence (P10520 whole entry): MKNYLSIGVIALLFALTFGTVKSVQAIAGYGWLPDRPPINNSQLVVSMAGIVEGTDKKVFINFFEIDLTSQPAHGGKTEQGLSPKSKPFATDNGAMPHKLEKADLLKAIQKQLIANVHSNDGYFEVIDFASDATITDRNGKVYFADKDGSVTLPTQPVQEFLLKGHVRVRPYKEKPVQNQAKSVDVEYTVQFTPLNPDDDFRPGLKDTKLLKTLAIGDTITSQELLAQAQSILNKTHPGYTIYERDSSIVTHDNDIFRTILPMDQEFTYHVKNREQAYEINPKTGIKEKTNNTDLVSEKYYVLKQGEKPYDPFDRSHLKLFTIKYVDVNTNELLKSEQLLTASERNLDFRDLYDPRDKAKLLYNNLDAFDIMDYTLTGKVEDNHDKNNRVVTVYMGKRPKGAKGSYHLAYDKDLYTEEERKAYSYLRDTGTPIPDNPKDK
# ASSAY_INFO: S. pyogenes streptokinase expression inhibitors, potency, dose response, plasminogen activation absorbance, OD405 (AID 1914);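 note: secreted streptokinase activity via plasminogen activation per viability signal from cell pellet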
# Type: functional, Streptococcus pyogenes M1 GAS
Calls of active or inactive are those of the source.

* Cc1cc(C)cc(NS(=O)(=O)c2ccc(NC(=S)NC(=O)c3cccs3)cc2)c1 | 11.7 µM (active)
* Cc1ccc(Nc2nc(N/N=C\c3ccc4c(c3)OCO4)nc(N3CCOCC3)n2)cc1 | 111 µM (active)
* Oc1ccccc1/N=C/c1c(O)ccc2oc3c(c12)CCCC3 | > 150 µM (not active)
* COc1ccc(-c2oc(NC(=O)CSc3nc[nH]n3)c(C#N)c2-c2ccc(OC)cc2)cc1 | 1.08 µM (active)
* CCn1nc(C)cc1-c1nnc(Sc2ncc([N+](=O)[O-])s2)n1C | > 150 µM (not active)

Qu. Param item = `CCOC(=O)c1ccc(NC(=O)c2[nH]cnc2C(=O)N[C@@H](Cc2ccccc2)C(=O)OC(C)(C)C)cc1` ; retrieve measured EC50.
Ans. > 150 µM (not active)

----------
# Test system: P388;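 note: compound exposure lasted 48 hours before growth was measured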
# ASSAY_INFO: cells
# Type: functional
# CONDITION: Mus musculus
Active and inactive are the calls of the source.
Entry note: the call must match one of TRUE (active), FALSE (inactive)

Check out these entries, answers already filled in.
- COC1=C2C[C@@H](C)C[C@@H](OC)[C@@H](O)[C@H](C)/C=C(\C)[C@@H](OC(N)=O)[C@H](OC)/C=C\C=C(/C)C(=O)NC(=CC1=O)C2=O: TRUE
- O=C(CCl)NNC1=Nc2ccc(Cl)cc2SC1: TRUE
- CCCCCn1cc2c3c(cccc31)C1C=C(C)CN(C)[C@@H]1C2.Cc1ccc(C(=O)OC(C(=O)O)C(OC(=O)c2ccc(C)cc2)C(=O)O)cc1 (centres undefined): FALSE

For the next question, use this compound.
Qu. Please state the recorded outcome for this compound: C/C=C1/C(=O)O[C@]23C=C[C@@H]4C(C(=O)OC)=CO[C@H](O[C@@H]12)[C@@H]43 [PLUMERICIN]
Ans. TRUE

----------
# TARGET_ENTITY: Oxysterols receptor LXR-beta (Homo sapiens, UniProt P55055)
# Sequence (P55055 whole entry): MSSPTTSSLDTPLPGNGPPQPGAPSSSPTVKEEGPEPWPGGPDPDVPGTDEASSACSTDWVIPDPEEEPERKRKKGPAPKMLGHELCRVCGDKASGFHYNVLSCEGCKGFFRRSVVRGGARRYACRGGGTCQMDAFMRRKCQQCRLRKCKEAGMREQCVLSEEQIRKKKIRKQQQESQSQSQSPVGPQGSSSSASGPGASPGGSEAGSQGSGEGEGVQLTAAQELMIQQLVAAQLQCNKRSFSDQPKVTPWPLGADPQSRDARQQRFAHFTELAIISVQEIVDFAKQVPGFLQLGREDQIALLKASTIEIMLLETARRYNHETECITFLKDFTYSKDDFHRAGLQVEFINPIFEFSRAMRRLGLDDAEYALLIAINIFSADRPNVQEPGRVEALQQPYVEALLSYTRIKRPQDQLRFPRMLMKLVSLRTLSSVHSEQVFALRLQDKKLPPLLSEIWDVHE
# ASSAY_INFO: LXR agonists, Gal4 luciferase reporter, dose response, counter-screen for ssDAF-12 agonist project, cell-based, luminescence, HEK293, S. stercoralis campaign (AID 720737)
# Assay type: functional
# CONDITION: read-out: IC50 (the source's name)
Calls of active or inactive are those of the source.
ENDPOINT_NAME: EC50

For orientation, consider the following solved cases.
- COC(=O)[C@]1(C)N[C@H](CN(C)C(C)=O)[C@@H]2C(=O)N(Cc3ccccc3)C(=O)[C@@H]21: > 67.5 µM (inactive)
- O=C1/C(=C\c2cccs2)Sc2ccc3ccccc3c21: > 67.6 µM (inactive)
- Cc1ccc(Nc2nc(N)c3ccccc3n2)cc1Cl: > 67.6 µM (inactive)

Below: the item to evaluate.
Qu. Param item = `CCn1c(C)cc(C=C2C(=O)c3ccccc3C2=O)c1C` ; retrieve measured EC50.
Ans. > 67.5 µM (inactive)
